All figures here come from patent US4980378A.

Provide the recorded Relative Enhancement for the entries that follow.
test: Transdermal penetration of indomethacin from ointment across shed snake skin (vertical diffusion cell); format: in vitro ADME, black rat snake (Elahe obsoleta); conditions: indomethacin ointment, 5% enhancer; relative to Azone = 100%; early stage of penetration studies; 32° C.
Write the numeric value and follow it with the unit.

In: Query: Relative Enhancement; subject: CCCCCCCCCCOC(=O)CN(C)C [compound 3, decyl (N,N-dimethylamino)acetate]
Out: 380%

In: Query: Relative Enhancement; subject: CCCCCCCCCCCCOC(=O)CN(CC)CC [Compound No. 5, dodecyl (N,N-diethylamino)acetate]
Out: 70%

In: Query: Relative Enhancement; subject: CCCCCCCCCCOC(=O)CN1CCN(C)CC1 [Compound No. 6, Decyl (4-methyl-1-piperazinyl)acetate]
Out: 40%

In: Query: Relative Enhancement; subject: CCCCCCCCCCCCCCOC(=O)CN(C)C [Compound No. 1, tetradecyl (N,N-dimethylamino)acetate]
Out: 100%
